We begin with a simple list: items and their reported IC50, Thiofiavin T aggregation assay.
# target-or-test-system: T1, Nat1 (LTIITLE) (also: TFA salt)
# T1 peptide: LTIITLE
# protocol-notes: cell-based or functional assay
Non-standard residues stand in square brackets, D forms with d. No end group written: not given here.
Field: numeric (nM). Do not append units.

Below: 8 binders and their reported IC50, Thiofiavin T aggregation assay.
LRIRHYT = 182
IRIRRAA = 248
LRLRHYR = 146
TLIIYHR = 357
[dH][dQ][dR][dY][dY][dW][dR] [hqryywr] = 138
WYIRLTH = 369
[dW][dW][dR][dF][dH][dW][dR] [wwrfhwr] = 472
LLIKYHA = 234

GET /value?item= `WTIRYYK` &field=IC50, Thiofiavin T aggregation assay returns 203
